- Study target: T1, Mouse GDF15 Fc (mouse, UniProt Q9Z0J7 189-303, limits assumed)
- T1 construct: also called mouse GDF15-Fc fusion; not shown: Fc part
- T1 sequence (looked up): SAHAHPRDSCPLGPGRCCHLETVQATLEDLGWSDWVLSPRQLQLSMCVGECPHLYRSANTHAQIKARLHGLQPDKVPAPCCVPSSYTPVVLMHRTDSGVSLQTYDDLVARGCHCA
- Assay explanation: BLI Octet; antigen on sensor, 100 nM Fab (monovalent)
I'd be grateful if you could share measured Kd for these entries.
Hi! Could you send only the number? It should be in nM, unit omitted.

# input Requested read-out: Kd. Entry: GDF15 antibody agent Clone E, Fab (Fab, V domains shown, Fab; CH1 and CL of the Fab not specified; also called Fab of Clone E) VH: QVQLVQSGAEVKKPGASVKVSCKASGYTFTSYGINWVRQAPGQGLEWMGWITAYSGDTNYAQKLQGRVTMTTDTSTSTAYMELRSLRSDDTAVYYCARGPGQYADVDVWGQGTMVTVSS VL: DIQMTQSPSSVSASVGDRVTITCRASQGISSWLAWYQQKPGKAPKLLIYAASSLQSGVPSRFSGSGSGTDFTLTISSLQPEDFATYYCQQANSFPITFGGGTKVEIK
# output 3.08

# input # Kd lookup, item GDF15 antibody agent Clone N, Fab (Fab, V domains shown, Fab; CH1 and CL of the Fab not specified; also called Fab of Clone N) VH: QVQLVQSGAEVKKPGASVKVSCKASGYTFTDYGIFWVRQAPGQGLEWMGWITAYSGDTHYAQKLQGRVTMTTDTSTSTAYMELRSLRSDDTAVYYCVRDTQYGGSPYWGQGTLVTVSS VL: EIVMTQSPATLSVSPGERATLSCRASQSVSSNLAWYQQKPGQAPRLLIYGASTRATGIPARFSGSGSGTEFTLTISSLQSEDFAVYYCQQYNNWPITFGGGTKVEIK
# output 2.56

All figures here come from patent US20250382359A1.
